test system: SK-OV-3 ovarian; assay: NCI tumour cell line growth inhibition, 48 h
Recorded measurements of TGI, one per entry

molecule: CN(CCO)Cc1ncccc1O
TGI: > 100 µM
--
molecule: Cc1c[nH]c(C(=O)O)c1-c1cccn1-c1ccc(Cl)cc1[N+](=O)[O-]
TGI: > 100 µM
--
molecule: Nc1nonc1-c1nc2ccccc2n1Cc1ccc(F)cc1
TGI: > 100 µM
--
molecule: COC1CC(OC2CCC3(C)C(=CCC4C3C(OC(C)=O)C(OC(=O)CC(C)C)C3(C)C(C(C)=O)CCC43O)C2)OC(C)C1OC1CC(OC)C(OC2CC(OC)C(OC3OC(C)C(O)C(OC)C3O)C(C)O2)C(C)O1 (stereo not given)
TGI: > 100 µM
--
molecule: O=C(c1ccco1)N(C(=S)N1CCN(c2ccccc2)CC1)C1CCCCC1
TGI: > 100 µM
--
molecule: NCCCOc1cc2ccccc2cc1C(=O)Nc1ccc(Cl)cc1OC(=O)c1cc2ccccc2cc1OCCCN
TGI: 3.19 µM
--
molecule: CCOC(=O)Nc1nc2ccccc2[nH]1
TGI: > 100 µM
--
molecule: COc1cc2c(cc1OC)C1c3ccccc3CCN1CCC2 (stereo not given)
TGI: > 100 µM
--
molecule: N#CCCN(CCC#N)c1ccc(C(N=Nc2ccc(Cl)cc2)=Nc2ccccc2)cc1
TGI: 27.1 µM
--
molecule: N#Cc1ccc(-c2c(-c3ncn[nH]3)sc(N3CCOCC3)c2C#N)c(F)c1
TGI: 5.69 µM

----------
system: NCI-H460 lung; assay: NCI tumour cell line growth inhibition, 48 h

compound: O=C(O)c1cc2ccccc2c2c3c(ccc12)OCO3
TGI: > 1000 µM
--
compound: O=c1c2cc(Br)cc(Br)c2nc(CCCl)n1-c1ccc(O)c([N+](=O)[O-])c1
TGI: 42.1 µM
--
compound: S=C=Nc1ccc(CSc2nc3ccccc3[nH]2)cc1
TGI: 40.4 µM
--
compound: CNC(=O)N(CCC#N)CCN(C(=O)N(C)C)c1ccccc1
TGI: > 100 µM
--
compound: O=C(O)C1OC1C(=O)O (stereo not given)
TGI: > 100 µM
--
compound: Cn1c(=O)c2sc3c4sc5c(=O)n(C)c6ccccc6c5c4sc3c2c2ccccc21
TGI: > 100 µM
--
compound: COCCOC(=O)NCn1cc(-c2ccccc2)nn1
TGI: > 100 µM
--
compound: Cc1c(O)c(OC2OC(CO)C(O)C(O)C2O)cc2c1CC[C@@H]1C2(C)C(=O)C[C@]2(C)[C@@H]([C@@](C)(O)C3CCC(C)(C)O3)[C@H](O)C[C@@]12C (stereo not given in full)
TGI: > 100 µM
--
compound: O=C(O)CCO/N=C1/C(c2c(O)[nH]c3ccccc23)=Nc2ccccc21
TGI: > 100 µM
--
compound: Cc1ccc(S(=O)(=O)NC(=O)Nc2cccc(S(N)(=O)=O)c2)cc1
TGI: > 100 µM

----------
system: UO-31 renal; assay: NCI tumour cell line growth inhibition, 48 h; in the data active = GI50 below about 0.43 µM; inactive = the rest
Labels: y for active, n for inactive

compound: CC(C)(C)OC(=O)NCCCCn1c2c(c3ccccc3c1=O)C(=O)c1ccccc1-2
labelClass: n

compound: COc1ccc(/C(C)=N/NC(=O)CSc2nc3ccccc3c(=O)n2CCc2ccc(S(N)(=O)=O)cc2)cc1
labelClass: n

compound: COc1ccc(C(C)c2cc(OC)c(OC)c(OC)c2)cc1 (centres undefined)
labelClass: y

compound: [N-]=[N+]=NCCCn1c2c(c3ccc([N+](=O)[O-])cc3c1=O)C(=O)c1cc3c(cc1-2)OCO3
labelClass: y

compound: O=C(NCCc1ccccc1)Nc1ccc2cc3ccc(NC(=O)NCCc4ccccc4)cc3nc2c1
labelClass: n

compound: Cc1ccc(Nc2cc(Cl)c([N+](=O)[O-])cc2[N+](=O)[O-])cc1
labelClass: n

compound: CCCCCCCCCC[C@@H](O)[C@@H]1CC[C@@H]([C@@H]2CC[C@@H]([C@@H](O)CCCCCCCCCC[C@H](O)CC3=CC(C)OC3=O)O2)O1 (some centres undefined)
labelClass: n

compound: O=S(=O)(NCCNc1nccc(-c2c(-c3ccc(F)c(O)c3)nc3sccn23)n1)c1ccc(Cl)cc1
labelClass: n

compound: O=[N+]([O-])c1cccc(-c2nc(-c3ccc(Cl)cc3Cl)cn2-c2ccccc2)c1
labelClass: n

----------
tested on: SW-620 colon; experiment: NCI tumour cell line growth inhibition, 48 h

molecule: O=C(Cc1nc2sc3c(c2c(=O)[nH]1)CCCC3)Nc1ccccc1
TGI: > 100 µM

molecule: CC(=O)OC1OC(c2ccoc2)C[C@@]12C1CCC3O[C@]3(C)[C@]1(C)[C@H](OC(C)=O)[C@H](OC(C)=O)[C@H]2C (stereo not given in full)
TGI: > 37.5 µM

molecule: Cc1cccc(C)c1NC(=O)CCC/C(CC(=O)c1ccc(F)cc1)=N\NC(=O)C(=O)NN
TGI: > 100 µM

molecule: COC(=O)C1CCC(=O)N1CN(C(C)=O)c1cc(OC)ccc1OC (stereo not given)
TGI: > 100 µM

molecule: OB(O)c1ccccc1C#Cc1ccccc1B(O)O
TGI: > 100 µM

molecule: O=C1C2=Cc3ccccc3OC2(O)Oc2ccccc21 (stereo not given)
TGI: > 100 µM

molecule: C/C(=N\NC(=O)C[N+](C)(C)C)c1sc(-c2cccnc2)nc1C
TGI: > 100 µM

molecule: CCC1C(C)C=NN1c1nc(N)nc(C(C#N)=Nc2ccc(N(C)C)cc2)n1 (stereo not given)
TGI: 26.8 µM

molecule: COC(=O)[C@H](Cc1ccccc1)NC(=O)N(CCC#N)CCCCN(CCC#N)C(=O)N[C@@H](Cc1ccccc1)C(=O)OC
TGI: > 100 µM

molecule: Clc1cc2ccccc2c2ccccc12
TGI: > 100 µM

----------
Listed below: TGI values for each entry.
test system: OVCAR-5 ovarian; assay: NCI tumour cell line growth inhibition, 48 h
attributeMeasured: TGI

molecule: CN(C)CCCNc1ccc2nnn3c4ccc(OC(=O)c5ccccc5)cc4c(=O)c1c23
assaySystem: OVCAR-5 ovarian
dataValue: 30.4 µM
//
molecule: COc1cc2cc(C(=O)N3CC(CCl)c4ccc([N+](C)(C)Cc5ccc([N+](=O)[O-])cc5)cc43)[nH]c2c(OC)c1OC (stereo not given)
assaySystem: OVCAR-5 ovarian
dataValue: > 100 µM
//
molecule: [N-]=[N+]=NC1(c2ccccc2)C(=O)C(Cl)=C(c2ccccc2)N(c2ccccc2)C1=O (stereo not given)
assaySystem: OVCAR-5 ovarian
dataValue: > 100 µM
//
molecule: CC(C)(C)C1CCC2c3c([nH]c4ncccc34)C3C(=O)N(c4ccccc4)C(=O)C3C2C1 (stereo not given)
assaySystem: OVCAR-5 ovarian
dataValue: > 100 µM
//
molecule: COc1cc2c(cc1OC)C1c3ccccc3CCN1CCC2 (stereo not given)
assaySystem: OVCAR-5 ovarian
dataValue: > 100 µM
//
molecule: CCCN(CCC)C(=S)N/N=C(/C)c1ccccc1O
assaySystem: OVCAR-5 ovarian
dataValue: > 62.9 µM
//
molecule: Clc1cc2ccccc2c2ccccc12
assaySystem: OVCAR-5 ovarian
dataValue: > 100 µM
//
molecule: COc1ccc2c(c1)c1c(n2CCN2CCOCC2)-c2cccc(OC)c2CC1
assaySystem: OVCAR-5 ovarian
dataValue: > 100 µM
//
molecule: O/N=C1\CC2(N3CCOCC3)CCC1(c1ccccc1)CC2
assaySystem: OVCAR-5 ovarian
dataValue: > 100 µM
//
molecule: O=C1c2c(O)cc(O)cc2C(C2OC(CO)C(O)C(O)C2O)c2cc(CO)cc(O)c21 (stereo not given)
assaySystem: OVCAR-5 ovarian
dataValue: > 100 µM

----------
system: CCRF-CEM leukemia; test: NCI tumour cell line growth inhibition, 48 h

givenSmiles: COc1cc(-n2cc(-c3ccccc3)[nH]c2=O)cc(OC)c1OC
GI50: > 100 µM

givenSmiles: C=C1c2ccccc2C(=O)c2c1c1c(C(=O)OC)c(OC(=O)OCc3ccc([N+](=O)[O-])cc3)ccc1n2Cc1ccccc1
GI50: 1.78 µM

givenSmiles: O=C(Nc1cccc(-n2cc(-c3ccncc3)c(-c3ccc(O)c(Cl)c3)n2)c1)c1ccc2c(c1)OCCO2
GI50: 3.75 µM

----------
system: SK-MEL-2 melanoma; experiment: NCI tumour cell line growth inhibition, 48 h
Here the recorded TGI is given for each entry.

compound: CNCCN[C@@H]1c2cc3c(cc2[C@@H](c2cc(OC)c(O)c(OC)c2)[C@H]2C(=O)OC[C@@H]21)OCO3
unitsOfMeasure: µM
relationQualifier: =
TGI: 1.79
//
compound: O=C(NCCc1ccccc1)Nc1ccc2cc3ccc(NC(=O)NCCc4ccccc4)cc3nc2c1
unitsOfMeasure: µM
relationQualifier: =
TGI: 3
//
compound: CC(C)(C)OC(=O)NCCCCn1c2c(c3ccccc3c1=O)C(=O)c1ccccc1-2
unitsOfMeasure: µM
relationQualifier: >
TGI: 100
//
compound: Cc1ccc(S(=O)(=O)NC(=O)Nc2cccc(S(N)(=O)=O)c2)cc1
unitsOfMeasure: µM
relationQualifier: >
TGI: 100
//
compound: CN(C)C1(N(C)C)Oc2c(c(=O)n(C)c(=O)n2C)C(c2ccc(C(F)(F)F)cc2)C1(F)F (stereo not given)
unitsOfMeasure: µM
relationQualifier: >
TGI: 100
